# target system: human PDE9A2 (Homo sapiens)
# Construct: made in house; host or cells: Sf9 insect cells (infected); crude lysate used as enzyme source
# Sequence (O76083 1-533 isoform O76083-2): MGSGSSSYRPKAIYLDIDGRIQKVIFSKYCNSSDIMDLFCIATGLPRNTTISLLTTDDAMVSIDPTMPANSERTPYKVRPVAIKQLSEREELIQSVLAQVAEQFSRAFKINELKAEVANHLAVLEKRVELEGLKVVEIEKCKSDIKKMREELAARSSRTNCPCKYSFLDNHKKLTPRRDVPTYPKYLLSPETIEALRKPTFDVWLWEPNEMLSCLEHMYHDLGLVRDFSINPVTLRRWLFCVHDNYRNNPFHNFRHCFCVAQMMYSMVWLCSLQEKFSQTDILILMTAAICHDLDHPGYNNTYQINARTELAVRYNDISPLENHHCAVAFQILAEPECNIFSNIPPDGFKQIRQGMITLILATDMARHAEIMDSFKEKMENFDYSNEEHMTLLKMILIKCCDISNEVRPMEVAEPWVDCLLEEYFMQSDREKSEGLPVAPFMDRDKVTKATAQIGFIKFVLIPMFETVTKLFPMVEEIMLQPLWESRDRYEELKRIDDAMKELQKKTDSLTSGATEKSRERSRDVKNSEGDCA
# test protocol: PDE9A2 enzymatic activity assay (scintillation proximity assay, SPA)
# Type: biochemical
# stated conditions: read-out: % inhibition of PDE9A2 (at 10 micromolar concentration), 10 micromolar concentration; values above 100% adjusted to 100%
quantity measured: inhibition at 10 µM (%)

O=c1[nH]c(CC2CC2)nc2c1cnn2C1CCCCO1 (racemic) [Example 147-2]	87
O=c1[nH]c(Cc2ccc(F)c(Cl)c2)nc2c1cnn2C1CCOC1 (racemic) [Example 71]	99
O=c1[nH]c(CC2CCC2)nc2c1cnn2C1CCCNC1 (racemic) [Example 206]	82
O=c1[nH]c(CC2CC2)nc2c1cnn2C1CCOC1 (racemic) [Example 80]	94
O=c1[nH]c(Cc2ccccn2)nc2c1cnn2C1CCOCC1 [Example 51]	96
O=c1[nH]c(CC2CC2)nc2c1cnn2C1CCSCC1 [Example 40-5]	98
O=c1[nH]c(Cc2ccc(F)cc2)nc2c1cnn2C1CCCOC1 (racemic) [Example 101]	98
COc1ccc(C2CCCCC2Cc2nc3c(cnn3C3CCOCC3)c(=O)[nH]2)cn1 (racemic) [Example 40-4]	92
CCC(CC)Cc1nc2c(cnn2C2CCOC2)c(=O)[nH]1 (racemic) [Example 76]	98
CC(=O)N1CCC(n2ncc3c(=O)[nH]c(CC4CCCC4)nc32)CC1 [Example 151]	92
O=C(c1ccccc1)N1CCCC(n2ncc3c(=O)[nH]c(Cc4ccccc4)nc32)C1 (racemic) [Example 182]	100
O=c1[nH]c(CC2CCC2)nc2c1cnn2C1CCCN(CC(F)(F)F)C1 (racemic) [Example 192]	100
O=c1[nH]c(Cc2ccc(F)c(Br)c2)nc2c1cnn2C1CCOCC1 [Example 136]	100
O=c1[nH]c(CC2CCCC2)nc2c1cnn2C1CCOC1 (racemic) [Example 69]	99
CCc1cc(OC)ccc1Cc1nc2c(cnn2C2CCOCC2)c(=O)[nH]1 [Example 235]	98
CC(C)(C)OC(=O)N1CCCC(n2ncc3c(=O)[nH]c(CC4CCCC4)nc32)C1 (racemic) [Example 17]	100
CC(C)Cc1nc2c(cnn2C2CCOC(C)C2)c(=O)[nH]1 (racemic) [Example 114]	89
CCCCc1nc2c(cnn2C2CCOCC2)c(=O)[nH]1 [Example 8]	100
